Molecular target: human plasma kallikrein (human, UniProt P03952 20-638)
Sequence (P03952 20-638): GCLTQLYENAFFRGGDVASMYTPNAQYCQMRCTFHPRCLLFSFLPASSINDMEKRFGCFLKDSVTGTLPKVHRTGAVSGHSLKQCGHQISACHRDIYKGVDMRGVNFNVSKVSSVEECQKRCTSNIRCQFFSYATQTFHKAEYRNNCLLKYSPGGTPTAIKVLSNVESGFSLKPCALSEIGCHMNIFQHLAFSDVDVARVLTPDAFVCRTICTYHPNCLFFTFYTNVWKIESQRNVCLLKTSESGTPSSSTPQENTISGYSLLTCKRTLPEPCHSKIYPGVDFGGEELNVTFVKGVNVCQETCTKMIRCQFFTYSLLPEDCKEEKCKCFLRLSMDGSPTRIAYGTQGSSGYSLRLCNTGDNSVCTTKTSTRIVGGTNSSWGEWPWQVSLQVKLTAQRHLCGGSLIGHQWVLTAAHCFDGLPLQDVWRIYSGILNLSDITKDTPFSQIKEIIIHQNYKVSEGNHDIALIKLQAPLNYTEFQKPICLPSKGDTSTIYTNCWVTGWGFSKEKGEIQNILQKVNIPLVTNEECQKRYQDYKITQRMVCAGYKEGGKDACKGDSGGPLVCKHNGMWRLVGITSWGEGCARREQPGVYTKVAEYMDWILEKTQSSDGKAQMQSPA
Assay: enzyme inhibition
Please provide measured log10 Ki for the entries that follow.
Hey, these are logged values: log10 of Ki, µM being the unit before logging.

Solved entries:
DD129 (protein) EVVREVCSEQAETGPCRALFSRWYFDVTEGKCAPFFYGGCGGNRNNFDTEEYCMAVCGSAI ... -2.44
BG002 (protein) EVVREVCSEQAETGPCRALLSRWYFDVTEGKCAPFFYGGCGGNRNNFDTEEYCMAVCGSAI ... -3.01
TW6151 (protein) EVVREVCSEQAETGPCRAMISRWYFDVTEGKCAPFFYGGCEGNRNNFDTEEYCMAVCGSAI ... -0.79
DD101 (protein) EVVREVCSEQAETGPCRAMISRWYFDVTEGKCAPFFYGGCDGNRNNFDTEEYCMAVCGSAI ... -1.19
TW6153 (protein) EVVREVCSEQAETGPCRAMISRWYFDVTEGKCAPFFYGGCIGNRNNFDTEEYCMAVCGSAI ... -1.95

Take each entry in turn and give its log10 Ki.
1. TW122 (protein) EVCSEQAETGPCRAMISRWYFDVTEGKCAPFFYGGCGANRNNFDTEEYCMAVCGSAI
2. TW6159 (protein) EVVREVCSEQAETGPCRAMISRWYFDVTEGKCAPFFYGGCVGNRNNFDTEEYCMAVCGSAI
3. TW6148 (protein) EVVREVCSEQAETGPCRAMISRWYFDVTEGKCAPFFYGGCGGARNNFDTEEYCMAVCGSAI

1. -1.49
2. -1.77
3. -1.40

Cited source for all entries: patent US6906033
